Here the recorded Kd is given for each entry.
TARGET_DESC: Serine/threonine-protein kinase mTOR (Homo sapiens)
EXPERIMENT: binders of mTOR FRB domain, biophysical, NMR (AID 1648)
SETTINGS: NMR binding to FRB domain, chemical shift
Activity calls are given as the source filed them. How the calls were made is not given here.

Here are 5 compounds together with their reported answers.
COMPOUND	READOUT_VALUE
COC(=O)C1CCc2ccccc2N1 (configuration not stated)	> 4 mM (inactive)
Cc1c(CO)cnn1-c1ccccc1	> 4 mM (inactive)
COc1ccc([C@H]2COc3c(ccc(O)c3OC)C2)c(OC)c1O	> 4 mM (inactive)
Fc1cccc(F)c1CN1CCN(c2ncccn2)CC1	> 4 mM (inactive)
O=C1C2C3C=CC(C3)C2C(=O)N1CCO (configuration not stated)	> 4 mM (inactive)

Could you please provide reported Kd for C=C[C@@](C)(O)CCC1C(=C)CCC2[C@@](C)(CO)CCC[C@]12C (some centres not stated) ? Thanks!
> 4 mM (inactive)

Answer with the recorded Kd for the compound listed here: `O=C1CCC(=O)N1c1nc2ccccc2s1`
> 4 mM (inactive)
